Values were extracted from a protein production outcome set (Wang et al. 2014).

# test summary: label from the status in PepcDB records
measured endpoint: protein production

Consider the following illustrative entries.
{"sequence data": "MTTENTTALLLIDFQNDYFSTYNGAKNPLVGTEAAAEQGAKLLAKFRQQGLPVVHVRHEFPTDEAPFFLPGSDGAKIHPSVAAQEGEAVVLKHQINSFRDTDLKKVLDDAGIKKLVIVGAMTHMCIDAVTRAAEDLGYECAVAHDACATLDLEFNGITVPAAQVHAAFMSALSFAYANVASADELIAGL", "protein production": "not failed"}
{"sequence data": "MSLSNHSSDIEVGHSMNLTNHFLVAMPSMKDPYFKRSVIYICEHNQDGAMGLMINAPIDITVGGMLKQVDIEPAYPQSHQENLKKPVFNGGPVSEDRGFILHRPRDHYESSMKMTDDIAVTTSKDILTVLGTEAEPEGYIVALGYSGWSAGQLEVELTENSWLTIEADPELIFNTPVHEKWQKAIQKLGISPAQLSSDAGHEGGSHHHHHH", "protein production": "not failed"}
{"sequence data": "SERRYKQLFDSGRDGIFVVQMDEEEGVAQIVEANWSAHEMFGYSQGAFEELAFASLVDKGEREGVERLLKELPLKGGALIESHFVLLEHRSIPIELSIQSFLLEEKRTLYVSARDIT", "protein production": "failed"}
{"sequence data": "MNLLVIGGHERMEKDYMVMAKKKGYKTKVYTTMSSKLNNSIGRPDAVVILTSTVSHKMSRTVESQAKKQDILIVRHKNSSKVAFNECLDMVDECLGNCSKCKLKDKQKQKNILEHHHHHH", "protein production": "failed"}

Now for another entry.
Recorded protein production of PPAAVGPWDDILAPLYRYTRARARELAETRETMQSMLAAAQALPDGVVTLNEDFQIDWANRMARRHLGLRLPADRGHNLLNLLRAPEFVAYAHRGHWPEPILVRLSLNGQERVMMIHLAGYAS , please.
failed

* * *

# test summary: label from the status in PepcDB records
measured endpoint: protein production

{"sequence data": "MTYKVFIDGEAGTTGLQIRARLEGRDDIRLITLGDADRKDTRARLAAFDAADVGILCLPDAAAVEIVAQLAGTGTRLIDASTAHRVDPGWVFGFAELDNDLRARIAGGQFVSNPGCYSTGAIALLHPLVKRGLIAADQALAINAISGYSGGGKAMIAEFESGKTDGPFVYATEQRHKHLPEIVAHAGLTRQPVFVPSVGPYEQGMIVQVPLPFVEPGQGAAIEAALADHYATSRFVSVVSPDHYGARIDPRRLNGTNQLELSVHGNLDTGGAVLLALLDNLGKGASGAAVQNLNIMLGLDEGLGL", "value": "failed"}
{"sequence data": "ALAETVSDFRLPNGLEVVVIEDHRAPVVTHMVWYRVGAADEPPGHSGIAHFLEHLMFKGTDEMSAGEFSATVEAQGGDDNAFTSWDYTAYFQRVAADRLDLMMKMEADRMRDLQMTEEDVRTERQVVLEERSQRTDSDPGAVFSEQSRAAAYLNHPYGIPIIGWRHEIEQLGREDAFSFYRTYYAPNNAILVVAGDVDPAEVRRMAEEHYGALEPTP", "value": "failed"}

* * *

# test summary: label from the status in PepcDB records
measured endpoint: protein production

Consider the following illustrative entries.
{"sequence data": "MAEEAALNFADFYDAELALHNAHFRVTAAVGRSDRVLDVGCGAGQTTRDAARAAEAGRAHGIDLSATMLEIARRRSAEEGLPNATFELADAQNYHFAKGEFDLCISRFGVMFFADPAVAFANIANAVRPGGRFIFMVWQGRDHNEWATAIHEALDPDSTGPVAAGKAFSLSETSVTSGLLETAGFTAIEFREINEPVFYGPDPETALVTIQTFENVKNALDRPATTAEIRARLLDMLEAHQTPHGVQFDSRAWLITGGRYGDSPPCFIGDFRSA", "value": "failed"}
{"sequence data": "AIASQFDPDKFKQEQKARWNQGARSTWTLWKQTQVEDTPAKFFLGLVPIRPGVKVLDLACGSGETSLQVAQLVSSHLPSDSKDAKIVCVDISEEMLRVLSQRAQELGLSSVVETCCEDAENINFGTHYFDMVMSQFGVMFLPHLPEDLANIRKMMKPGSLFCCVVWGEEKDCHIFYAARSVVSPPPPPPGTPVSYGTKEKVMEALRKAEFSDVKAVEFQVVHETKDAEEYITLMSGVNQWLEKSLGEKGSGPWQKLVEYCNNSYRTSRGTLQFPNVCVGITAIA", "value": "failed"}
{"sequence data": "MTTPSASTRAVLEEACLSVGLDTTNAQPIRIAENAVWRLPGGVVVRVARPGQSAAAAREVQVARWLTAEGVPAVRALDLPQPVAASGHPVTFWQELPPHEIGTVTDVVVLLKQLHALPKPDLPLGELDPFVRLVERIDAAITISDDDQLWLKHRLEDLKQQWASRPKGLPECVVHGDAWVGNVARTEAGPMLLDFERASFGPPEWDLVSTAVKLTTTGAVSAEEYAAFCETYGVDVTEWEGYELLANARELRMVTYAAQHAASRPEWRREAQYRIDCLRGRAGAPPWRWKGII", "value": "failed"}
{"sequence data": "FGLEGLPKHLKRIPLECLVEAKSYLRQYPQVDSERIGIYGRSKGAELVLAEESIFNDVQCLVLNSPSDVVDEGIIGKWNSHTSSWTHLQKELPYQKFRFRDYLFSKLFRKDFPKDCSARIDIGQMHSPILLLESTVDEIWDASSAIDDIVSHYKGHYITFKKYHETGHMLTVAYQPNHRYRKDWHLLMKESEDSWLATIHFFDRHLK", "value": "failed"}

Now for another entry.
Recorded protein production of MRVAILGCGYVGCALARRLLAAGHDVVGVCRSPDSLDAVRETGATAVRADVTDAASLAAVPDADAVVFAASSGGRGADAAREVYVDGLRTVVEQFGGRDDPPEQLVYTSSTGVYGDHDGDWVDEETPLDPTTEKTAALVDAERVALTDASEHGLDPTVVRFAGLYGPDRYRLTRYLDGPVTEGYLNMIHRDDAAGVVAFALTDADADVLLAVDDDPVSKWAFADWLADEAGVPQPAKQTVAERIAAGDLSTPAERRLRTSKRCSNARLTELGYSFAHPTFRSGYQAAIRAHERGEYK , please.
failed
